FYI, the data here is from paper PMC5999115.

Molecular target: HDAC6 (Homo sapiens, UniProt Q9UBN7)
Sequence (Q9UBN7 whole entry): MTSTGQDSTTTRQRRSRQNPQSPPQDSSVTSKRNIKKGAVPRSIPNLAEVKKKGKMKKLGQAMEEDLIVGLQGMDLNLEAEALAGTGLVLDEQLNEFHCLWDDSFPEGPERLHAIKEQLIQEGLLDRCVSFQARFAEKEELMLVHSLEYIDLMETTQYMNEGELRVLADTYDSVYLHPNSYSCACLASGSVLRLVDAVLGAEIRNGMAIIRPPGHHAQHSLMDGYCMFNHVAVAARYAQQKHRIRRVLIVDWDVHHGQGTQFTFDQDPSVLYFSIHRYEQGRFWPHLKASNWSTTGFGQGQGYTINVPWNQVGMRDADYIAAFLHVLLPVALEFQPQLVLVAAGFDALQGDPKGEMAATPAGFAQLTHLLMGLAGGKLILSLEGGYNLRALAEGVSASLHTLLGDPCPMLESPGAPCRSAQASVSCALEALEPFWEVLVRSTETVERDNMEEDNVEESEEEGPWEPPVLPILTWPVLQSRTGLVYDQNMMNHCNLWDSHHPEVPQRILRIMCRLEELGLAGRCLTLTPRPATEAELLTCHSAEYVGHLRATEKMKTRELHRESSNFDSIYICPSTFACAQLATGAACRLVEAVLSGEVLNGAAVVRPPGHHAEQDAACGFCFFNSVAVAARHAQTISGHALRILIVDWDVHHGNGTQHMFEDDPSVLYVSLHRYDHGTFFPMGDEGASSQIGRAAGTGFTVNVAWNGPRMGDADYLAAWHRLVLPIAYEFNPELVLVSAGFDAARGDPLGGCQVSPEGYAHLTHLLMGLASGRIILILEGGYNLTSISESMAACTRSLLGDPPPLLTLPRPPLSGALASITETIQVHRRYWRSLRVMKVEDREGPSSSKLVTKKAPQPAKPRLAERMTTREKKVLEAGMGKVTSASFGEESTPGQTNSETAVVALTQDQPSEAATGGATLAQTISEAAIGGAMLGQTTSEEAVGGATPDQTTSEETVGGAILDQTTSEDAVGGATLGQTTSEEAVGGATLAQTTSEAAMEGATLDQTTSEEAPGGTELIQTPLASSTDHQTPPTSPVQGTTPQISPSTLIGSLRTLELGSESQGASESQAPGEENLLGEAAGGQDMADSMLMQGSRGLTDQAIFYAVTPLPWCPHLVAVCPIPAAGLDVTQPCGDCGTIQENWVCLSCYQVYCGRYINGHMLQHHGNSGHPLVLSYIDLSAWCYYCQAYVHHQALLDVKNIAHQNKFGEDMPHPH
RECORDED_METRIC: IC50 (nM)
Numeric only. Scale: nM

Can you look up the measured IC50 of CC(COc1ccccc1)N(CCCl)Cc1ccccc1 (stereo not shown) for me? 590

###

Tested on: PRXF PC-3
Assay: Oncotest CellTiter-Blue cell viability assay, 72 hours
Format: cell-based, human
Settings: Homo sapiens; PRXF PC-3 Prostate; 1% FCS
RECORDED_METRIC: IC50

Can you look up the measured IC50 of CC(COc1ccccc1)N(CCCl)Cc1ccccc1 (stereo not shown) for me? 29.8 µM

###

Target: HDAC5 (Homo sapiens)
Sequence (Q9UQL6 656-1122 limits assumed): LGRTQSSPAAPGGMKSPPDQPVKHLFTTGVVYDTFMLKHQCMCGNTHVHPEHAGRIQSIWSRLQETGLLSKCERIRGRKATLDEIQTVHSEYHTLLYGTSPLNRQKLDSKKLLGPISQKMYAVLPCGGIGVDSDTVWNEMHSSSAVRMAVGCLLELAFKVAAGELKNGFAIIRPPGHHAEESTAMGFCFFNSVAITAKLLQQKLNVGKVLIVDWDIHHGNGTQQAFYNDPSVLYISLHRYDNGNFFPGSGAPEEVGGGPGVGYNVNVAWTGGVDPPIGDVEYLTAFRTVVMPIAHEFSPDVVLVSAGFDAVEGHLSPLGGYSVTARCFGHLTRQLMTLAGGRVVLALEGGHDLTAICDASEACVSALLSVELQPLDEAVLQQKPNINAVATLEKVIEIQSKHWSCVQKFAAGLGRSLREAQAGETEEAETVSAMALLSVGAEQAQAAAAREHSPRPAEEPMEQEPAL
RECORDED_METRIC: IC50 (µM)
Numeric only. Scale: µM

Query IC50 on HDAC5 (Homo sapiens) for CC(COc1ccccc1)N(CCCl)Cc1ccccc1 (stereo not shown) [PBZ, phenoxybenzamine] 9.8
